Ref: patent US5747447A

- Assay Target: ADP-induced human platelet aggregation (Homo sapiens, UniProt P05106+P08514)
- Sequence (P08514 32-1039): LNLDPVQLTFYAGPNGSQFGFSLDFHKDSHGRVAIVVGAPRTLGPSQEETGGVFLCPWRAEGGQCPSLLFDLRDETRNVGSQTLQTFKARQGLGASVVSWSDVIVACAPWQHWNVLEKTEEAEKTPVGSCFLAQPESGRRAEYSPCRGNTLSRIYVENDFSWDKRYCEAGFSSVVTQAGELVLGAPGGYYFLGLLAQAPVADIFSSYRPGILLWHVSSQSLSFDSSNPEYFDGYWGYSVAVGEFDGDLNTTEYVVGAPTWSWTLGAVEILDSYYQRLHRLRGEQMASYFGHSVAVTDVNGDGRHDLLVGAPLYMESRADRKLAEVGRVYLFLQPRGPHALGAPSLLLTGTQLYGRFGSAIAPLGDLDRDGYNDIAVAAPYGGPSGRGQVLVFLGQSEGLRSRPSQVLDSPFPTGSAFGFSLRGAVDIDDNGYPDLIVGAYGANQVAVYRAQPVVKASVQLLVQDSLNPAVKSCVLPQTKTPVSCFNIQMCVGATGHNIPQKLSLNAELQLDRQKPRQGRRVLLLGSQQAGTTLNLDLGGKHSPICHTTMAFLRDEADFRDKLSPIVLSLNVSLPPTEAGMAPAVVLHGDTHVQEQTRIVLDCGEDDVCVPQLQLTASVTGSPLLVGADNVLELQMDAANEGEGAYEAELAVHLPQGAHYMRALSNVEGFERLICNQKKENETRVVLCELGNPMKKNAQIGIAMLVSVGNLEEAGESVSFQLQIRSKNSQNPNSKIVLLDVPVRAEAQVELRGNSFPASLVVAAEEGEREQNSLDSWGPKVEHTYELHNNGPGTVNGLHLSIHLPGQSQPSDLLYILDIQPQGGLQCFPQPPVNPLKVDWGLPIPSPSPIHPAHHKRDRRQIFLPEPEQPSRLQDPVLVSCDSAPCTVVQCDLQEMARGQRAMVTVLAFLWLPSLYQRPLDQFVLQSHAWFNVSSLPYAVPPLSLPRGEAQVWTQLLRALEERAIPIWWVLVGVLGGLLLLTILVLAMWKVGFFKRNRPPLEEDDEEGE
- Sequence (P05106 27-788): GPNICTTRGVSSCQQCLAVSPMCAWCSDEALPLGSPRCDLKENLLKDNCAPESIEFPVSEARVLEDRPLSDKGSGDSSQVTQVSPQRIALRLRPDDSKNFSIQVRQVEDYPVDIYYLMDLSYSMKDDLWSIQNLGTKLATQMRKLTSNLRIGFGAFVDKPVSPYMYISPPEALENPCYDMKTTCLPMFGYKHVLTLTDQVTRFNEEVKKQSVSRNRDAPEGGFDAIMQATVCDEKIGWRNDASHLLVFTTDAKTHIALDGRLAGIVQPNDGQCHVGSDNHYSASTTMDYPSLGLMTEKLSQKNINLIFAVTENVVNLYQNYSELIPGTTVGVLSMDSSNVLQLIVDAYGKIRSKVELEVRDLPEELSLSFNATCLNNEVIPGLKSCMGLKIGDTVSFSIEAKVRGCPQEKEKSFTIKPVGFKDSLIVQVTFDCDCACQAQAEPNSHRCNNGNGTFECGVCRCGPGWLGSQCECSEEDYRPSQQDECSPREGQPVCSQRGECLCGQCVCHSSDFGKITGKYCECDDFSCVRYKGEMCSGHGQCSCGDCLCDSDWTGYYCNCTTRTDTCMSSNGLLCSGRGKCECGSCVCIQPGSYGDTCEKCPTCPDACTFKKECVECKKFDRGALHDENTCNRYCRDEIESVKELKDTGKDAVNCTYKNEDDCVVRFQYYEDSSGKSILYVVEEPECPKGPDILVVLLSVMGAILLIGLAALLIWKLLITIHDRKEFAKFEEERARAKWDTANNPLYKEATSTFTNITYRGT
- Test Details: standard aggregation inhibition assay (ADP-induced human platelet aggregation)
- Type: cell-based
- Measurement Setup: ADP-induced human platelet aggregation; read-out: Appr, IC50
*1 amine or outer side, *2 acyl side, *3 side chain or, on linkers, in order; H or OH if unused. Where a SMILES comes first, the peptide text is derived from it. Bridges are numbered along the chain shown (N, C = ends). [ ]: non-standard residue; d: D form. Phe(4-NO2) = N[C@@H](Cc1ccc([N+](=O)[O-])cc1)C(=O)O; X1 = N=C(NCCCC[C@H](N[*:1])C(=O)[*:2])c1ccccc1; X2 = CC(=N)NCCCC[C@H](N[*:1])C(=O)[*:2]; hArg = N=C(N)NCCCC[C@H](N)C(=O)O; Pen = CC(C)(S)[C@H](N)C(=O)O; Mpa = O=C(O)CCS; Sar = CNCC(=O)O
Lab note - cut at 2 µM for IC50: T if strictly below, F if not.

See these solved cases before continuing.
Query block: Check if IC50 falls below 2 µM for CC1(C)SSCCC(=O)N[C@H](CCCCN)C(=O)NCC(=O)N[C@@H](CC(=O)O)C(=O)N[C@@H](Cc2c[nH]c3ccccc23)C(=O)N2CCC[C@H]2C(=O)N[C@@H]1C(N)=O [Analog #62, Mpr-K.dagger.-G-D-W-P-Pen-NH2] ([Mpa][dK]GDWP[Pen]-NH2; disulfide 1-7) .
Result block: F

Query block: Check if IC50 falls below 2 µM for CC1(C)SSCCC(=O)N[C@@H](CCCCNC(=N)c2ccccc2)C(=O)NCC(=O)N[C@@H](CC(=O)O)C(=O)N[C@@H](Cc2c[nH]c3ccccc23)C(=O)N2CCC[C@H]2C(=O)N[C@@H]1C(N)=O [Analog #72, Mpr-(Phenylimidyl-Lys)-G-D-W-P-Pen-NH2] ([Mpa][X1]GDWP[Pen]-NH2; disulfide 1-7) .
Result block: T

Query block: Check if IC50 falls below 2 µM for CC(=N)NCCCC[C@@H]1NC(=O)CCSSC[C@@H](C(N)=O)NC(=O)[C@@H]2CCCN2C(=O)[C@H](Cc2c[nH]c3ccccc23)NC(=O)[C@H](CC(=O)O)NC(=O)CNC1=O [Analog #64, Mpr-(Acetimidyl-Lys)-G-D-W-P-C-NH2] ([Mpa][X2]GDWPC-NH2; disulfide 1-7) .
Result block: T

Query block: Check if IC50 falls below 2 µM for CC1(C)SSCCC(=O)N[C@@H](CCCCN)C(=O)NCC(=O)N[C@@H](CC(=O)O)C(=O)N[C@@H](Cc2c[nH]c3ccccc23)C(=O)N2CCC[C@H]2C(=O)N[C@@H]1C(N)=O [Analog #51, Mpr-K-G-D-W-P-Pen-NH2] ([Mpa]KGDWP[Pen]-NH2; disulfide 1-7) .
Result block: T

Query block: Check if IC50 falls below 2 µM for CC1(C)SSCCC(=O)N[C@@H](CCCCN)C(=O)NCC(=O)N[C@@H](CC(=O)O)C(=O)N[C@@H]1C(N)=O [Analog #9, Mpr-K-G-D-Pen-NH2] ([Mpa]KGD[Pen]-NH2; disulfide 1-5) .
Result block: F

Query block: Check if IC50 falls below 2 µM for CC1(C)SSCCC(=O)N[C@@H](CCCCN)C(=O)NCC(=O)N[C@H](CC(=O)O)C(=O)N[C@@H](Cc2c[nH]c3ccccc23)C(=O)N2CCC[C@H]2C(=O)N[C@@H]1C(N)=O [Analog #54, Mpr-K-G-D.dagger.-W-P-Pen-NH2] ([Mpa]KG[dD]WP[Pen]-NH2; disulfide 1-7) .
Result block: F

Query block: Check if IC50 falls below 2 µM for NCCCC[C@@H]1NC(=O)[C@@H](N)CSSC[C@@H](C(N)=O)NC(=O)[C@@H]2CCCN2C(=O)[C@H](Cc2ccc([N+](=O)[O-])cc2)NC(=O)[C@H](CC(=O)O)NC(=O)CNC1=O [Analog #44, C-K-G-D-(4-NO2 -Phe)-P-C-NH2] (H-CKGD[Phe(4-NO2)]PC-NH2; disulfide 1-7) .
Result block: F

Query block: Check if IC50 falls below 2 µM for CC1(C)SSCCC(=O)N[C@@H](CCCCN)C(=O)NCC(=O)N[C@@H](CC(=O)O)C(=O)N[C@@H](Cc2c[nH]c3ccccc23)C(=O)N2CCC[C@@H]2C(=O)N[C@@H]1C(N)=O [Analog #53, Mpr-K-G-D-W-P.dagger.-Pen-NH2] ([Mpa]KGDW[dP][Pen]-NH2; disulfide 1-7) .
Result block: F

Query block: Check if IC50 falls below 2 µM for CC1(C)SSCCC(=O)N[C@@H](CCCCN)C(=O)NCC(=O)N[C@@H](CC(=O)O)C(=O)N[C@H](Cc2c[nH]c3ccccc23)C(=O)N2CCC[C@H]2C(=O)N[C@@H]1C(N)=O [Analog #50, Mpr-K-G-D-W.dagger.-P-Pen-NH2] ([Mpa]KGD[dW]P[Pen]-NH2; disulfide 1-7) .
Result block: F

Query block: Check if IC50 falls below 2 µM for CN1CC(=O)N[C@@H](CC(=O)O)C(=O)N[C@@H](Cc2c[nH]c3ccccc23)C(=O)N2CCC[C@H]2C(=O)N[C@H](C(N)=O)C(C)(C)SSCCC(=O)N[C@@H](CCCCNC(=N)N)C1=O [Analog #71, Mpr-Har-Sar-D-W-P-Pen-NH2] ([Mpa][hArg][Sar]DWP[Pen]-NH2; disulfide 1-7) .
Result block: F

Others:
Query block: Check if IC50 falls below 2 µM for CN1CC(=O)N[C@H](C(N)=O)CSSC[C@H](N)C(=O)N[C@@H](CCCCN)C(=O)NCC(=O)N[C@@H](CC(=O)O)C(=O)N[C@@H](Cc2c[nH]c3ccccc23)C1=O [Analog #39, C-K-G-D-W-(Sar)-C-NH2] (H-CKGDW[Sar]C-NH2; disulfide 1-7) .
Result block: F

Query block: Check if IC50 falls below 2 µM for N=C(NCCCC[C@@H]1NC(=O)CCSSC[C@@H](C(N)=O)NC(=O)[C@@H]2CCCN2C(=O)[C@H](Cc2c[nH]c3ccccc23)NC(=O)[C@H](CC(=O)O)NC(=O)CNC1=O)c1ccccc1 [Analog #70, Mpr-(Phenylimidyl-Lys)-G-D-W-P-C-NH2] ([Mpa][X1]GDWPC-NH2; disulfide 1-7) .
Result block: T

###

- Assay Target: ADP-induced human platelet aggregation (Homo sapiens, UniProt P05106+P08514)
- Test Details: standard aggregation inhibition assay (ADP-induced human platelet aggregation)
- Measurement Setup: ADP-induced human platelet aggregation; read-out: Appr, IC50
Where a SMILES comes first, the peptide text is derived from it. Bridges are numbered along the chain shown (N, C = ends). [ ]: non-standard residue; d: D form. hArg = N=C(N)NCCCC[C@H](N)C(=O)O; Pen = CC(C)(S)[C@H](N)C(=O)O; Pip = O=C(O)[C@@H]1CCCCN1; Mpa = O=C(O)CCS
Reported Property: IC50 (µM)
Give the value, in units of µM, as a plain number.

Query block: Find IC50 (ADP-induced human platelet aggregation (Homo sapiens, UniProt P05106+P08514)) for the entry CC1(C)SSCCC(=O)N[C@@H](CCCCN)C(=O)NCC(=O)N[C@@H](CC(=O)O)C(=O)N[C@@H](Cc2c[nH]c3ccccc23)C(=O)N2CCCC[C@H]2C(=O)N[C@@H]1C(N)=O [Analog #59, Mpr-K-G-D-W-(Pip)-Pen-NH2] ([Mpa]KGDW[Pip][Pen]-NH2; disulfide 1-7)
Result block: 1

Query block: Find IC50 (ADP-induced human platelet aggregation (Homo sapiens, UniProt P05106+P08514)) for the entry CC1(C)SSCCC(=O)N[C@@H](CCCCNC(=N)N)C(=O)NCC(=O)N[C@@H](CC(=O)O)C(=O)N[C@@H](Cc2c[nH]c3ccccc23)C(=O)N2CCC[C@H]2C(=O)N[C@@H]1C(N)=O [Analog #63, Mpr-(Har)-G-D-W-P-Pen-NH2] ([Mpa][hArg]GDWP[Pen]-NH2; disulfide 1-7)
Result block: 0.1

Query block: Find IC50 (ADP-induced human platelet aggregation (Homo sapiens, UniProt P05106+P08514)) for the entry NCCCC[C@@H]1NC(=O)CNC(=O)[C@@H](N)CSSC[C@@H](C(N)=O)NC(=O)[C@@H]2CCCN2C(=O)[C@H](Cc2c[nH]c3ccccc23)NC(=O)[C@H](CC(=O)O)NC(=O)CNC1=O [Analog #5, C-G-K-G-D-W-P-C-NH2] (H-CGKGDWPC-NH2; disulfide 1-8)
Result block: 5

Query block: Find IC50 (ADP-induced human platelet aggregation (Homo sapiens, UniProt P05106+P08514)) for the entry NCCCC[C@@H]1NC(=O)CCSSC[C@H](C(N)=O)NC(=O)[C@@H]2CCCN2C(=O)[C@H](Cc2c[nH]c3ccccc23)NC(=O)[C@H](CC(=O)O)NC(=O)CNC1=O [Analog #61, Mpr-K-G-D-W-P-C.dagger.-NH2] ([Mpa]KGDWP[dC]-NH2; disulfide 1-7)
Result block: 15
